Data origin, for the record: patent US12110278B2

Form field: pKd (one value per entry).
- ASSAYED TARGET: JAK2 JH2 (Homo sapiens (Human))
- Sequence (O60674 536-812 W659A/W777A/F794H): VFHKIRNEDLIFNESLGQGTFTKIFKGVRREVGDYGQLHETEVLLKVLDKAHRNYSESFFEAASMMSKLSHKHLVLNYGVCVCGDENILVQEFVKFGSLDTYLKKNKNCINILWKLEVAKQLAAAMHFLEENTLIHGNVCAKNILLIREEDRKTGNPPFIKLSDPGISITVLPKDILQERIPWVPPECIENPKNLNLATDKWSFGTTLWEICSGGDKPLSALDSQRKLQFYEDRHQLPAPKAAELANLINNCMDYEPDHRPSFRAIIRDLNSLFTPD
- EXPERIMENT SUMMARY: Competitive fluorescence polarization (FP) assay, JAK2 JH2
- CONDITION CONTEXT: read-out: Binding Affinity for JAK2 JH2 (Kd) from the FP Assay; wild-type JH2, FP, pH 8.0; mean ± SEM
Keep in mind that pKd stands for -log10 of concentration in molar terms.

Example entries begin here.
structure_notation=Nc1nc(Nc2ccc(S(N)(=O)=O)cc2)nn1C(=O)Nc1cccnc1 recorded_result=4.91
structure_notation=Nc1nc(Nc2ccc(S(N)(=O)=O)cc2)nn1C(=O)Nc1ccccn1 recorded_result=4.52
structure_notation=Nc1nc(Nc2ccc(S(N)(=O)=O)cc2)nn1C(=O)Nc1ccc(-c2nnc(C(=O)O)o2)cc1 recorded_result=5.15
structure_notation=Nc1nc(Nc2ccc(S(N)(=O)=O)cc2)nn1C(=O)Nc1ccc(-c2ccc(C(=O)O)o2)cc1 recorded_result=6.36
structure_notation=Nc1nc(Nc2ccc(S(N)(=O)=O)cc2)nn1C(=O)Nc1ccccc1 recorded_result=5.33
structure_notation=CN(C(=O)n1nc(Nc2ccc(S(N)(=O)=O)cc2)nc1N)c1ccccc1 recorded_result=4.32
structure_notation=N#Cc1ccc(Nc2nc(N)n(C(=O)Nc3cccc(OCC(=O)O)c3)n2)cc1 recorded_result=5.40

Bench note: what pKd did Nc1nc(Nc2ccc(S(N)(=O)=O)cc2)nn1Cc1c(F)cccc1F show?
4.78
